B1: tRNA (parent)
chain: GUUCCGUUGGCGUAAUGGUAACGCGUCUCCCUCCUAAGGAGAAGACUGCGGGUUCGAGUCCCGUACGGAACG

variants of: B1; experiment: yeast fitness relative to wild type (ratio to wild type); higher = fitter; tRNA-Arg(CCU), competitive growth, 37 C, YPD
Fewer inactive variants are shown than the library holds.
Readout label: yeast fitness
Output: the number by itself.

# annotated cases, reported yeast fitness shown
| Changes | Readout label | Numeric value |
| --- | --- | --- |
| G25C U53C A65C | yeast fitness | 0.697 |
| U8C G18C G50A C60U | yeast fitness | 0.546 |
| G10A A21G C29A | yeast fitness | 0.519 |
| G6C C62G | yeast fitness | 0.688 |
| C11U U53C | yeast fitness | 0.652 |

Task: Entry under review: U13C G18C G50C A57U C62U . Reported yeast fitness?
Result: 0.578

Task: If you can, please state the reported yeast fitness value of C24U C49U G56C .
Result: 0.542

Task: Which yeast fitness reading was recorded for the variant G52A U54A ?
Result: 0.537

Task: Bench note: what yeast fitness did C5G G58A show?
Result: 0.957
